Molecular target: human M4 receptor (Homo sapiens (Human), UniProt P08173)
Sequence (P08173 whole entry): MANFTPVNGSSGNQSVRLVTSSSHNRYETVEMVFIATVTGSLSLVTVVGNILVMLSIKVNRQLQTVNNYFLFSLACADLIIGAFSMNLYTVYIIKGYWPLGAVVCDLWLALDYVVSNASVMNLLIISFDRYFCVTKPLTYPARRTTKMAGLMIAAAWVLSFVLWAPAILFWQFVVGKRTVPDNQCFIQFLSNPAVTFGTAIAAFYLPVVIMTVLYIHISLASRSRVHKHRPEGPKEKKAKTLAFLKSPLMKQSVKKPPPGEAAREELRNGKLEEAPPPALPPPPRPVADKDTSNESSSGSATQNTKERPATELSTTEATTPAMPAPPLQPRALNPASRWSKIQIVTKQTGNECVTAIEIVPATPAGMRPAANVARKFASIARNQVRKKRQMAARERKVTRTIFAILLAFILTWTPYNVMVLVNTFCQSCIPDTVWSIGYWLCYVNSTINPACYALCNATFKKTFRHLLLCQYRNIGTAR
ENDPOINT_LABEL: Ki

Reference set, count: 3
C[C@@H]1CN(c2ncc(S(C)(=O)=O)cn2)[C@@H](C)CN1C(=O)NC1CC2(C1)CN(Cc1ccccc1)C2 [Compound 4] : 100 to 500 nM
C[C@@H]1CN(c2ncc(N3CCCC3=O)cn2)C[C@H](C)N1C(=O)OC1CC2(C1)CN(Cc1ccccc1)C2 [Compound 30] : ≥ 500 nM
C[C@@H]1CN(c2ncc(S(=O)(=O)C3CC3)cn2)[C@@H](C)CN1C(=O)OC1CC2(C1)CN(Cc1ccccc1)C2 [Compound 20] : < 100 nM

Reported Ki (human M4 receptor (Homo sapiens (Human), UniProt P08173)) for entry C[C@@H]1CN(c2ncc([S+](C)[O-])cn2)C[C@H](C)N1C(=O)OC1CC2(C1)CN(Cc1ccccc1)C2 (stereo partly drawn) [Compound 23] is 100 to 500 nM

Sourced from patent US20250092022A1
